Molecular target: PPARδ (Homo sapiens, UniProt Q03181)
Construct: P1057. pET BAM6 PPARD G165-Y441-X
Sequence (Q03181 with tags, fused parts or gaps): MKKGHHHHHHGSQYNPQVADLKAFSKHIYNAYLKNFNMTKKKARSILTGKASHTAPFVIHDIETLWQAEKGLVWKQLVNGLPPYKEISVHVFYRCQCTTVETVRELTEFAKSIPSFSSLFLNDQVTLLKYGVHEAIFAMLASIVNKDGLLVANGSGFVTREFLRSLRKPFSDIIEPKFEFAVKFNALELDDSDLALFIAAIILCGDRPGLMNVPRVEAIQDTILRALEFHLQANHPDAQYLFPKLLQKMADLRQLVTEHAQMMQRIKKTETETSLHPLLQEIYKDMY
Test: homogenous Alpha screen assay, agonist mode, coactivator Biotin-PGC-1 peptide recruitment
Settings: His-tagged PPAR-LBD 10 nM, 25 nM biotin-PGC-1 peptide, 1 hour room temperature; read-out: EC50 with respect to PPARδ
quantity.kind: EC50

compound="COc1ccc2c(c1)c(SCC(=O)O)cn2S(=O)(=O)c1ccc(Cl)c(Cl)c1 [Compound 27]" assayed_target="PPARδ (Homo sapiens, UniProt Q03181)" assay_result="< 1000 nM"

---

Molecular target: PPARγ (Homo sapiens, UniProt P37231)
Sequence (P37231 with tags, fused parts or gaps): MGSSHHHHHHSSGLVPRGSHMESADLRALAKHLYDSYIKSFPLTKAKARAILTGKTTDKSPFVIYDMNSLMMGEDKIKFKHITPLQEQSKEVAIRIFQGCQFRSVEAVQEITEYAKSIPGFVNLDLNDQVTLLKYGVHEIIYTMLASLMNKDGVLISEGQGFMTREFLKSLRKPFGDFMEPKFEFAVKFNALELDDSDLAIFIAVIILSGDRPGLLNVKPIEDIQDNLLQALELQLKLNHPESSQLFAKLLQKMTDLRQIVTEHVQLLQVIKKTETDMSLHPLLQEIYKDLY
Assay: homogenous Alpha screen assay, agonist mode, coactivator Biotin-PGC-1 peptide recruitment
Details: His-tagged PPAR-LBD 20 nM, 25 nM biotin-PGC-1 peptide, 1 hour room temperature; read-out: EC50 with respect to PPARγ
pEC50: −log10 of the molar value.
quantity.kind: pEC50

record_smiles=COc1ccc2c(c1)c(SCC(=O)O)cn2S(=O)(=O)c1ccc(Cl)c(Cl)c1 assay_result="> 6.00"
